# experimental-system: 17β-HSD3 (Homo sapiens, UniProt P37058)
# Construct: expressed in transfected cells; host or cells: MCF-7 cells stably expressing 17β-HSD3
# Sequence (P37058 whole entry): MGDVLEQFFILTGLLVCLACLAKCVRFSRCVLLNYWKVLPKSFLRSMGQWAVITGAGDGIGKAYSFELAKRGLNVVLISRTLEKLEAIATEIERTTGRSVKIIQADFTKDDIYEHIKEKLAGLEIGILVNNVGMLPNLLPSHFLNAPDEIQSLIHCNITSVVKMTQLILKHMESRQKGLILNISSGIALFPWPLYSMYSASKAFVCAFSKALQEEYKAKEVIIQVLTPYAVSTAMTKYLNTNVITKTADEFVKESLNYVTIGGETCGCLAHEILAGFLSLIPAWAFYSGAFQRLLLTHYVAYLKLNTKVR
# experimental-details: Inhibition of 17β-HSD3 in MCF-7 cell lines stably expressing the enzyme (HPLC, tritium labeled androstenedione)
# Assay type: cell-based
# experimental-setup: MCF7; 10 µM; MCF-7 cells expressing 17β-HSD3, androstenedione 2 nM
Listing of recorded inhibition at 10 µM by entry.
Kindly answer with a numeric value in %, unit omitted.

## Input Sample C[C@]12CC[C@@H]3c4ccc(O)cc4CC[C@H]3[C@@H]1[C@H](CCCn1cc(CCc3ccccc3)nn1)CC2=O — what was its inhibition at 10 µM?
## Output 61

## Input Sample C[C@]12CC[C@@H]3c4ccc(O)cc4CC[C@H]3[C@@H]1[C@H](CCCc1cn(-c3ccc(F)cc3F)nn1)CC2(F)F — what was its inhibition at 10 µM?
## Output 70

## Input Sample CC(C)Cc1cn(CCC[C@@H]2CC(=O)[C@@]3(C)CC[C@@H]4c5ccc(O)cc5CC[C@H]4[C@H]23)nn1 — what was its inhibition at 10 µM?
## Output 64
